Numbers sourced from patent US20250333397A1.

- Test system: HTT mRNA
- Test: RT-qPCR splicing assay, HTT canonical (CJ) and alternative (AJ) junction mRNA
- Type: cell-based, human
- Assay setup: Homo sapiens, 24 h, Table 3A; A673 or K562 cells, 24 h treatment; read-out: HTT CJ (IC50, decrease in CJ mRNA)
Test readout: IC50

Recorded IC50, per entry:
COc1cc(-c2ccc(-c3ccc(N4CC[C@@H](NC5CCC5)C4)nn3)c(O)c2)ncn1 = 100 to 1000 nM
CCOc1cc(-c2ccc(-c3ccc(N4CC[C@@H](NC5CCC5)C4)nn3)c(O)c2)cnn1 = > 10000 nM
CN(C1CCC1)[C@H]1CCN(c2ccc(-c3cc(F)c(-c4cn[nH]c4)cc3O)nn2)C1 = < 100 nM
COc1cncc(-c2ccc(-c3ccc(N4CC[C@H](NC5CCC5)C4)nn3)c(O)c2)c1 = 1000 to 10000 nM
COc1cc(-c2ccc(-c3ccc(N4CCC(N[C@H]5C[C@@H](OC)C5)C4)nn3)c(O)c2)cnn1 (some centres unmarked) = < 100 nM

Data request: If you can, please state the reported IC50 value of Cn1cnc(-c2ccc(-c3ccc(N4CC[C@@H](NC(C)(C)C)C4)nn3)c(O)c2)cc1=O .
Data returned: < 100 nM

Data request: If you can, please state the reported IC50 value of Cc1ncc(-c2cc(O)c(-c3ccc(N4CC[C@@H](NCC5CCC5)C4)nn3)cc2F)s1 .
Data returned: < 100 nM

Data request: If you can, please state the reported IC50 value of COc1cc(-c2ccc(-c3ccc(N4CC[C@H](NC5(C)CCC5)C4)nn3)c(O)c2)ncn1 .
Data returned: < 100 nM

* * *

Measured pIC50 of individual entries
- Test system: HTT mRNA
- Test: RT-qPCR splicing assay, HTT canonical (CJ) and alternative (AJ) junction mRNA
- Format: cell-based, human
- Assay setup: Homo sapiens, 24 h, Table 3A; A673 or K562 cells, 24 h treatment; read-out: HTT CJ (IC50, decrease in CJ mRNA)
pIC50: −log10 of the molar value.

COc1cc(-c2ccc(-c3ccc(N4CCC(C)(NC(C)C)C4)nn3)c(O)c2)cnn1 (stereo not shown) [Compound 285] = > 7.00
COc1cc(-c2cc(O)c(-c3ccc(N4CCC(N[C@H]5C[C@H](F)C5)C4)nn3)cc2F)cnn1 (stereo partly shown) [Compound 274] = > 7.00
COc1cc(-c2cc(O)c(-c3cnc(N4CC[C@H](NC5CCC5)C4)nn3)cc2F)cnn1 [Compound 321] = 6.00 to 7.00

Data request: If you can, please state the reported pIC50 value of CC1(C)CC(Oc2ccc(-c3cc(F)c(-c4cn[nH]c4)cc3O)nn2)CC(C)(C)N1 [Compound 361] .
Data returned: > 7.00

* * *

Measured pIC50 of individual entries
- System: HTT mRNA
- Test: RT-qPCR splicing assay, HTT canonical (CJ) and alternative (AJ) junction mRNA
- Assay type: cell-based, human
- Assay setup: Homo sapiens, 24 h, Table 3A; A673 or K562 cells, 24 h treatment; read-out: HTT CJ (IC50, decrease in CJ mRNA)
pIC50: −log10 of the molar value.

Recorded pIC50, per entry:
Oc1cc(-c2cnn3c2CCC3)ccc1-c1ccc(N2CCC(NC3CCC3)C2)nn1 (stereo not shown) [Compound 362] = 6.00 to 7.00
Cc1ncc(-c2ccc(-c3ccc(N4CCC(NC5CCC5)C4)nn3)nc2F)s1 (stereo not shown) [Compound 349] = 6.00 to 7.00
Oc1cc(-c2cc(OC(F)F)ncn2)ccc1-c1ccc(N2CCC(NCC3CC3)C2)nn1 (stereo not shown) [Compound 370] = < 5.00
CCN(C1CCC1)[C@H]1CCN(c2ccc(-c3ccc(-c4cnnc(OC)c4)cc3O)nn2)C1 [Compound 276] = > 7.00
Cc1cc(-c2ccc(-c3ccc(N4CC[C@H](NC5CCC5)C4)nn3)c(O)c2)cnn1 [Compound 291] = 5.00 to 6.00

Data request: If you can, please state the reported pIC50 value of COc1cc(-c2ccc(-c3cc(C#N)c(N4CC[C@H](NC5CCC5)C4)nn3)c(O)c2)cnn1 [Compound 343] .
Data returned: 6.00 to 7.00

Data request: If you can, please state the reported pIC50 value of O=c1cc(-c2cc(O)c(-c3ccc(N4CC[C@@H](NC5CCC5)C4)nn3)cc2F)cc[nH]1 [Compound 220] .
Data returned: 6.00 to 7.00

Data request: If you can, please state the reported pIC50 value of Cc1ncc(-c2cc(O)c(-c3ccc(N4CC[C@@H](NC5CCC5)C4)nn3)cc2F)s1 [Compound 146] .
Data returned: > 7.00

Data request: If you can, please state the reported pIC50 value of Cc1nc(C#N)c(-c2cc(O)c(-c3ccc(N4CC[C@H](NC5CCC5)C4)nn3)cc2F)s1 [Compound 429] .
Data returned: 6.00 to 7.00
